# Test system: A549 cancer cell line
# TEST: In vitro cytotoxicity, Alamar blue cell viability, A549
# Type: cell-based
# SETUP CONDITIONS: Homo sapiens; A549, Non-small Cell Lung Cancer; 24 hr
READOUT TYPE: IC50

[
  {
    "MOL": "CC1=C(/C=C/C(C)=C/C=C/C(C)=C\\C(=O)NCCCO[C@@H]2O[C@H](CO)[C@H](O)[C@H](O)[C@H]2O)C(C)(C)CCC1",
    "READOUT TYPE": "IC50",
    "RESULT": "21.9 µM"
  }
]

----------
# Test system: MDA-MB-231 cancer cell line
# TEST: In vitro cytotoxicity, Alamar blue cell viability, MDA-MB-231
# Format: cell-based
# SETUP CONDITIONS: Homo sapiens; MDA-MB-231, Breast Cancer; 24 hr

[
  {
    "COMPOUND": "CC1=C(/C=C/C(C)=C/C=C/C(C)=C\\C(=O)NCCCO[C@@H]2O[C@H](CO)[C@H](O)[C@H](O)[C@H]2O)C(C)(C)CCC1 [Galactose-modified isotretinoin]",
    "UNITS": "µM",
    "IC50": 116
  }
]
